Record form. Attribute: inhibition. Fill in for each entry.
- Experimental target: Ribosomal protein S6 kinase alpha-4 (Homo sapiens);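 also: values are mean inhibition of MSK2, from GSK PKIS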
- Conditions: at 0.1 µM
The reply should be a number in %, with the unit left off.

Prompt line: What value of measured inhibition is listed for "Fc1ccc(-c2c(-c3ccncc3)nc3n2CCS3)cc1" ?
Response line: 4.42

Prompt line: Same question, "c1ccc(-c2n[nH]cc2-c2ccnc(-c3ccc(OCCN4CCOCC4)cc3)c2)nc1" this time
Response line: 3.23

Prompt line: Same question, "NC(=O)c1cc(-c2ccncc2)cc(-c2ccccc2)c1N" this time
Response line: 2.32

Prompt line: Same question, "COc1cc(N2CCN(C(C)C)CC2)ccc1Nc1nc(Nc2ccc(F)cc2C(=O)NC[C@@H](O)CO)c2cc[nH]c2n1" this time
Response line: 3.14

Prompt line: Same question, "C[C@@H](Oc1cc(-n2cnc3ccc(OCC4CCN(C)CC4)cc32)sc1C(N)=O)c1ccccc1Cl" this time
Response line: 3.23

Prompt line: Same question, "CCS(=O)(=O)c1ccc(OC)c(Nc2ncc(-c3ccccc3Cl)o2)c1" this time
Response line: 0.38

Prompt line: Same question, COc1ccc2cc(-c3c(-c4ccncc4)nc(-c4ccc([S+](C)[O-])cc4C)n3C)ccc2c1 (configuration not stated) this time
Response line: -0.04

* * *

- Experimental target: Vascular endothelial growth factor receptor 3 (Homo sapiens) (UniProt P35916);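 also: mean FLT4 inhibition, averaged across replicates, from the GSK PKIS kinase inhibitor screen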
- Sequence (P35916 whole entry): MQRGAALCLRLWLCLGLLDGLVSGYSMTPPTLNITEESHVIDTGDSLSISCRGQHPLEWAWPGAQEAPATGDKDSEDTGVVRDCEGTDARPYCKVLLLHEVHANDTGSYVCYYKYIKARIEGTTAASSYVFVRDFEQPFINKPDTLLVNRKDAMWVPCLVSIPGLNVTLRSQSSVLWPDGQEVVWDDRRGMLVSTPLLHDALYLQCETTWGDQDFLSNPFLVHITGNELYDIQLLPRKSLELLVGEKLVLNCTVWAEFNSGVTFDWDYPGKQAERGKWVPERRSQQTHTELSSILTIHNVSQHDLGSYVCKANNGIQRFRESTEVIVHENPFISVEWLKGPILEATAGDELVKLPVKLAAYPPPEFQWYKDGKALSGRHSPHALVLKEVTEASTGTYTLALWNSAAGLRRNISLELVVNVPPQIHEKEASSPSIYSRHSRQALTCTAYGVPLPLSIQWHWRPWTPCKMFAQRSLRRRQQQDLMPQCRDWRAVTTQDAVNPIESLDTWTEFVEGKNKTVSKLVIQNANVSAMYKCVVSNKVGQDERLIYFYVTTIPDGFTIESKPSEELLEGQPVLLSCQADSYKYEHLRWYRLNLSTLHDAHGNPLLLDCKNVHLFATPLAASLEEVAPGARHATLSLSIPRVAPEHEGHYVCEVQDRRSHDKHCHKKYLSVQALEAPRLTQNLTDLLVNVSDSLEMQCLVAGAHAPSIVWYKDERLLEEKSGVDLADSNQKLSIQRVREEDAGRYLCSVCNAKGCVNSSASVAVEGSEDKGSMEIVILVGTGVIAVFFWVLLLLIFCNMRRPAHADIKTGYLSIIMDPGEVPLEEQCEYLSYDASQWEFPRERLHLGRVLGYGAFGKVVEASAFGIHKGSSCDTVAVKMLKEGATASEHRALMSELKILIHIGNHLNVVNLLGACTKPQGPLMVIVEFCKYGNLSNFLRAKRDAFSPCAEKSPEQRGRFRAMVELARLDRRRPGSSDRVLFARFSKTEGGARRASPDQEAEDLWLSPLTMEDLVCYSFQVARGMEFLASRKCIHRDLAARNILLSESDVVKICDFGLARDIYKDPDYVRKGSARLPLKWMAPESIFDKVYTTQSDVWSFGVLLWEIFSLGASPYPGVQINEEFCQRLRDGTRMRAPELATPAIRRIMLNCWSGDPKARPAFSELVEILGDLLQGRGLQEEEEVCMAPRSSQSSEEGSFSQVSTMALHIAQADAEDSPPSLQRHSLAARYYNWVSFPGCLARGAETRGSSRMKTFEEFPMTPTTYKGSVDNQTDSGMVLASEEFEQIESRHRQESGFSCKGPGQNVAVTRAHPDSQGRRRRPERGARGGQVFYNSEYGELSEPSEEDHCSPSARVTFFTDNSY
- Conditions: at 1 µM
Record form. Attribute: inhibition. Fill in for each entry.
Please answer using the number first and the unit second.

Prompt line: What value of measured inhibition is listed for "O=C(Nc1ccc(Oc2ccc3[nH]c(NC(=O)c4ccccc4)nc3c2)cc1)Nc1cc(C(F)(F)F)ccc1F" ?
Response line: 36.2%

Prompt line: Same question, "NC(=O)c1cc(-c2ccc(F)cc2)cc(-c2ccncc2)c1N" this time
Response line: 0.18%

Prompt line: Same question, "O=C(Nc1n[nH]c2cc(-c3cc(F)ccc3F)ccc12)C1CC1" this time
Response line: 1.03%

Prompt line: Same question, "O=C(Nc1n[nH]c2nc(-c3ccc(O)cc3)c(Br)cc12)C1CC1" this time
Response line: 60.9%

Prompt line: Same question, "COc1cc(Nc2ncc3c(C)nc(-c4cccc(C(F)(F)F)c4)n3n2)cc(OC)c1OC" this time
Response line: 2.6%

Prompt line: Same question, Nc1nccc(-c2c(-c3ccc(F)cc3)ncn2C2CCC(O)CC2)n1 (stereo not drawn) this time
Response line: -0.22%

Prompt line: Same question, "O=C1Nc2ccc(I)cc2C1=Cc1cc(Br)c(O)c(Br)c1" this time
Response line: -3.58%

Prompt line: Same question, "CCS(=O)(=O)c1ccc(OC)c(Nc2ncc(-c3ccccc3Cl)o2)c1" this time
Response line: 29.9%

* * *

- System: Tyrosine-protein kinase ABL1 (Homo sapiens), P00519 [H396P]
- Conditions: at 0.1 µM
Outcome measure: inhibition (%)
The reply should be a number in %, with the unit left off.

Prompt line: What value of measured inhibition is listed for "N#Cc1ccc(Oc2nccc(-c3c(-c4ccc(F)cc4)ncn3C3CCNCC3)n2)cc1" ?
Response line: 3.91

Prompt line: Same question, "NS(=O)(=O)c1ccc(N/N=C2\C(=O)Nc3ccc(C(=O)NCCCn4ccnc4)cc32)cc1" this time
Response line: 5.17

Prompt line: Same question, "C/C(Nc1ccc(S(N)(=O)=O)cc1)=C1/C(=O)Nc2ccccc21" this time
Response line: 0.93

Prompt line: Same question, "COc1cc(C)c(N(C)C(=O)CN(C)C)cc1Nc1nc(Nc2cccc(F)c2C(N)=O)c2cc[nH]c2n1" this time
Response line: 1.11

Prompt line: Same question, "CCN(CC)Cc1ccc(Nc2nccc(-c3cnn4ncccc34)n2)cc1" this time
Response line: 8.9

Prompt line: Same question, "Cc1nnc(-c2ccc(C)c(-c3ccc(C(=O)NCc4ccc(Cl)cc4)cc3)c2)o1" this time
Response line: 3.3
